Give EC50 for every item shown.
Molecular target: T1, human blood protein factor XII (FXII) (human, UniProt P00748 20-615)
T1 construct: mature; Single-chain zymogen as it circulates in plasma; also called human FXII; plasma-derived FXII
T1 sequence (looked up): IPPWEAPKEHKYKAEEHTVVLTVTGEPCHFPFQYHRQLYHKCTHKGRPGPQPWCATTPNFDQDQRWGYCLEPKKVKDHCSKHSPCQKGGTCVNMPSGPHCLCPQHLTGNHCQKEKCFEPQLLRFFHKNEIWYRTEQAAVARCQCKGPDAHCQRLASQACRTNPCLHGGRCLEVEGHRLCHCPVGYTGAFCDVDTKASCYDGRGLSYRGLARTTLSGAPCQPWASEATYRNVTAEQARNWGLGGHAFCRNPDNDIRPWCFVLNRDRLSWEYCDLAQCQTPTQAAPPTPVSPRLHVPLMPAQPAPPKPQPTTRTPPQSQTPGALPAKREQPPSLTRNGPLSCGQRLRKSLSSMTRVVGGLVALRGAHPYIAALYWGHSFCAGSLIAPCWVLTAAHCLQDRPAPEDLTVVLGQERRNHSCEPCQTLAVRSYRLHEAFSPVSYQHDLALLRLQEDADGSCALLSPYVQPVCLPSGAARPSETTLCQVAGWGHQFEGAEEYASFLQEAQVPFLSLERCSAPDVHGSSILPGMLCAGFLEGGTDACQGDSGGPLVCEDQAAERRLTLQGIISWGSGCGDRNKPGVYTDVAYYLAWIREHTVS
Assay: ELISA, human FXII coated at 1 µg/mL, goat anti-human IgG-HRP detection
The answer should read as a number with its unit following.

Observe how each entry below is paired with its result.
humanized 5C12 antibody HC1 + LC1 (PP13893) (antibody, human IgG4 S228P, kappa, V domains shown, Human IgG4 (S241P hinge modified), expressed in HEK293; also called AB054; h5C12) VH: QVQLQESGPGLVKPSQTLSLTCTVSGYSITSGYSWHWIRQHPGKGLEWIGYIQYSGNTNSNPSLKSRVTISRDTSKNQFSLKLSSVTAADTAVYYCARWGSFDYWGQGTLVTVSS VL: EIVLTQSPATLSLSPGERATLSCRASSSVNYLHWYQQKPGQAPRRLIYDTSKLATGIPARFSGSGSGTDYTLTISSLEPEDFAVYYCQQWSGNPPTFGGGTKVEIKR: 9.12 ng/mL
humanized 5C12 antibody HC2 + LC3 (PP13898) (antibody, human IgG4 S228P, kappa, V domains shown, Human IgG4 (S241P hinge modified), expressed in HEK293; also called H7881 + L7882) VH: DVQLQESGPGLVKPSQTLSLTCTVTGYSITSGYSWHWIRQHPGKGLEWMGYIQYSGNTNSNPSLKSRVTISRDTSKNQFSLKLSSVTAADTAVYYCARWGSFDYWGQGTLVTVSS VL: DIVLTQTPATLSLSPGERATLSCRASSSVNYLHWYQQKPGQAPKRLIYDTSKLATGIPARFSGSGSGTDYTLTISSLEPEDFAVYYCQQWSGNPPTFGQGTRLEIKR: 8.09 ng/mL
humanized 5C12 antibody HC2 + LC2 (PP13897) (antibody, human IgG4 S228P, kappa, V domains shown, Human IgG4 (S241P hinge modified), expressed in HEK293; also called H7881 + L7881) VH: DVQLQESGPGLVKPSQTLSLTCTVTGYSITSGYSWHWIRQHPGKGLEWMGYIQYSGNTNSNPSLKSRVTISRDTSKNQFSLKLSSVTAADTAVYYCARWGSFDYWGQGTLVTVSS VL: EIVLTQSPATLSLSPGERATLSCRASSSVNYLHWYQQKPGQAPKRWIYDTSKLATGIPARFSGSGSGTDYTLTISSLEPEDFAVYYCQQWSGNPPTFGGGTKVEIKR: 8.78 ng/mL

Query EC50 for humanized 5C12 antibody HC1 + LC2 (PP13894) (antibody, human IgG4 S228P, kappa, V domains shown, Human IgG4 (S241P hinge modified), expressed in HEK293; also called H7880 + L7881) VH: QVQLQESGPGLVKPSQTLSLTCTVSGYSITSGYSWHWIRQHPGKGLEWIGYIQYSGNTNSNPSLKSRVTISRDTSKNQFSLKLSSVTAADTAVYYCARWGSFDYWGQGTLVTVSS VL: EIVLTQSPATLSLSPGERATLSCRASSSVNYLHWYQQKPGQAPKRWIYDTSKLATGIPARFSGSGSGTDYTLTISSLEPEDFAVYYCQQWSGNPPTFGGGTKVEIKR
8.22 ng/mL

These entries and their values trace back to patent US20220089776A1.
